tested on: KPM22; experiment: microbe, parasite or virus in culture; format: cell-based, E. coli; conditions: Escherichia coli; LB media, 37° C., 18 hours; lowest concentration that completely inhibited growth; read-out: Minimum Inhibitory Concentration KPM22
reported-endpoint: MIC (µg/mL)
One number for each entry, in µg/mL.

Hello, I would appreciate it if you could give MIC for each entry below.
1. NC[C@H]1O[C@H](O[C@H]2[C@H](O)[C@@H](O[C@H]3O[C@H](CO)[C@@H](O)[C@H](N)[C@H]3O)[C@H](N)C[C@@H]2N)[C@H](O)[C@@H](O)[C@@H]1O
2. O=C(Cc1cccs1)N[C@@H]1C(=O)N2C(C(=O)[O-])=C(C[n+]3ccccc3)CS[C@H]12
3. O=C(N[C@H](CO)[C@H](O)c1ccc([N+](=O)[O-])cc1)C(Cl)Cl

Ans:
1. 1
2. 4
3. 2

Q: Can you share its MIC? I mean this molecule: CC[C@H]1OC(=O)[C@H](C)[C@@H](O[C@H]2C[C@@](C)(OC)[C@@H](O)[C@H](C)O2)[C@H](C)[C@@H](O[C@@H]2O[C@H](C)C[C@H](N(C)C)[C@H]2O)[C@](C)(O)C[C@@H](C)C(=O)[C@H](C)[C@@H](O)[C@]1(C)O
Ans: 1

====

Give measured MIC for each item. Keep answers brief.
test system: KPM22; experiment: microbe, parasite or virus in culture; format: cell-based, E. coli; settings: Escherichia coli; LB media, 37° C., 18 hours; lowest concentration that completely inhibited growth; read-out: Minimum Inhibitory Concentration KPM22
Numbers only, in µg/mL.

Examples with answers:
compound	system	reported-endpoint	meas-value
CO[C@@H]1[C@@H](OC(N)=O)[C@@H](O)[C@H](Oc2ccc3c(O)c(NC(=O)c4ccc(O)c(CC=C(C)C)c4)c(=O)oc3c2C)OC1(C)C [Novobiocin]	KPM22	MIC	1
CN[C@H](CC(C)C)C(=O)N[C@H]1C(=O)N[C@@H](CC(N)=O)C(=O)N[C@H]2C(=O)N[C@H]3C(=O)N[C@H](C(=O)N[C@H](C(=O)O)c4cc(O)cc(O)c4-c4cc3ccc4O)[C@H](O)c3ccc(c(Cl)c3)Oc3cc2cc(c3O[C@@H]2O[C@H](CO)[C@@H](O)[C@H](O)[C@H]2O[C@H]2C[C@](C)(N)[C@H](O)[C@H](C)O2)Oc2ccc(cc2Cl)[C@H]1O [Vancomycin]	KPM22	MIC	32
CC(=O)O[C@H]1C[C@@]2(C)[C@@H](C[C@@H](O)[C@H]3[C@@]4(C)CC[C@@H](O)[C@@H](C)[C@@H]4CC[C@@]32C)/C1=C(\CCC=C(C)C)C(=O)O [Fusidic Acid]	KPM22	MIC	2

Q: Report MIC for CCCCCCCCCCCCOS(=O)(=O)[O-].[Na+] [Sodium dodecyl sulfate (SDS), Sodium dodecyl sulfate] please.
Ans: 8
